Each recorded value in this set is attributed to patent US4639433A.

Please provide measured MIC for the entries that follow.
test system: Staphylococcus aureus X400; details: agar dilution
Write down the numeric answer in µg/mL and omit the unit.

Req: Quick one: MIC for CCCCCCCC(=O)N(C)C(CC(C)C)C(=O)NC1C(=O)NC(CC(N)=O)C(=O)NC2C(=O)NC3C(=O)NC(C(=O)NC(C(=O)O)c4cc(O)cc(O)c4-c4cc3ccc4O)C(O)c3ccc(c(Cl)c3)Oc3cc2cc(c3OC2OC(CO)C(O)C(O)C2OC2CC(C)(N)C(O)C(C)O2)Oc2ccc(cc2Cl)C1O (centres unmarked) ?
Resp: 8

Req: Entry under review: C=CCCCCCCCCC(=O)NC1(C)CC(OC2C(Oc3c4cc5cc3Oc3ccc(cc3Cl)C(O)C(NC(=O)C(CC(C)C)N(C)C(=O)CCCCCCCCC=C)C(=O)NC(CC(N)=O)C(=O)NC5C(=O)NC3C(=O)NC(C(=O)NC(C(=O)O)c5cc(O)cc(O)c5-c5cc3ccc5O)C(O)c3ccc(c(Cl)c3)O4)OC(CO)C(O)C2O)OC(C)C1O (centres unmarked) . Reported MIC?
Resp: 16
